Target: T1, 4H72-bN
T1 chain: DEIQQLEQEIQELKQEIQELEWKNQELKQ
Assay: two-hybrid library CCNG1;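 note: natural log of median RNA to DNA barcode read ratio; higher means stronger binding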
Value kind: interaction score

>  <Binder>
DEIQQLEQKNQELKQEIQELEWKIQELKQ [4H454-bN]

>  <Assay result>
0.494

$$$$
>  <Binder>
DEIQQLKQEIQELEQKNQELEWKNQELKQ [4H568-bN]

>  <Assay result>
-0.806

$$$$
>  <Binder>
DKNQQLKQKIQELEQEIQELEWENQELEQ [4H3843-bN]

>  <Assay result>
-1.71

$$$$
>  <Binder>
DENQQLEQENQELEQKIQELKWEIQELEQ [4H1193-bN]

>  <Assay result>
-2.07

$$$$
>  <Binder>
DKIQQLKQENQELEQKIQELKWEIQELEQ [4H2729-bN]

>  <Assay result>
-1.09

$$$$

Where do the numbers come from? From paper PMC10397247.
